# testedOn: hCB1 (Homo sapiens, UniProt P21554)
# Construct: made in house; host or cells: Sf9 insect cells (baculovirus), P2 membranes
# Sequence (P21554 whole entry): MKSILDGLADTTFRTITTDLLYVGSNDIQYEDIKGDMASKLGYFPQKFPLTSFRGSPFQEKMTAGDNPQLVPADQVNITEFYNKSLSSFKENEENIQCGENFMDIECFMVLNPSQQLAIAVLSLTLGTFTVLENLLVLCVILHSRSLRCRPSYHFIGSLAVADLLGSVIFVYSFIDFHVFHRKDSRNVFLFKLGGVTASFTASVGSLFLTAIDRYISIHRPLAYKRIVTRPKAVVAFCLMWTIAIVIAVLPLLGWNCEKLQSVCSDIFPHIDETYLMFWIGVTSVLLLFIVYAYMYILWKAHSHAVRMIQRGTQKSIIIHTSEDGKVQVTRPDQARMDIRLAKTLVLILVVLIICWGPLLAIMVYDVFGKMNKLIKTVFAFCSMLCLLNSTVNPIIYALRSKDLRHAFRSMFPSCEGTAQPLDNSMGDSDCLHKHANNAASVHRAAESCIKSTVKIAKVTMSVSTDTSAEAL
# experiment: Agonist-induced GTP binding (GTPγ35S) assay at CB1, Example 8
# Assay type: biochemical
# conditionInfo: IC50 at CB1, determined as described in Example 8; read-out: IC50
Parameter: IC50. Scope: all listed entries.

N#CCc1ccc(NC(=O)Nc2ccc(Cl)cc2)cc1 | < 2000 nM
CCOc1cccc(NC(=O)Nc2cccc(F)c2)c1 | < 2000 nM

Can you share its IC50? I mean this compound: `CCC(=O)c1ccc(NC(=O)Nc2cccc(Cl)c2)cc1`
< 2000 nM

----------
# testedOn: hCB1 (Homo sapiens, UniProt P21554)
# Construct: made in house; host or cells: Sf9 insect cells (baculovirus), P2 membranes
# experiment: Agonist-induced GTP binding (GTPγ35S) assay at CB1, Example 8
# Type: biochemical
# conditionInfo: IC50 at CB1, determined as described in Example 8; read-out: IC50
Documented IC50 across a set of compounds

Item `CCOc1ccc(NC(=O)Nc2ccc(C(C)=O)cc2)cc1` with hCB1 (Homo sapiens, UniProt P21554) - IC50?
< 2 µM

----------
# testedOn: hCB1 (Homo sapiens, UniProt P21554)
# Construct: made in house; host or cells: Sf9 insect cells (baculovirus), P2 membranes
# experiment: Agonist-induced GTP binding (GTPγ35S) assay at CB1, Example 8
# Type: biochemical
# conditionInfo: IC50 at CB1, determined as described in Example 8; read-out: IC50
Items are presented alongside their recorded IC50.

Worked examples, 4 compounds total:
Cc1ccc(NC(=O)Nc2ccc(CC#N)cc2)cc1C [Compound 726] | < 2000 nM
CCCc1ccc(NC(=O)Nc2ccc(OC(F)(F)F)cc2)cc1 [Compound 519] | < 2000 nM
CC(=O)c1ccc(NC(=O)Nc2ccc(F)c(F)c2)cc1 [Compound 452] | < 2000 nM
COc1ccc(NC(=O)Nc2ccc(Cl)cc2)cc1 [Compound 383] | < 2000 nM

Now consider the entry below.
# get_value(readout='IC50', item= CC(C)OC(=O)c1ccc(NC(=O)Nc2ccc(OC(F)F)cc2)cc1 [Compound 584] )
< 2000 nM

----------
# testedOn: hCB1 (Homo sapiens, UniProt P21554)
# Construct: made in house; host or cells: Sf9 insect cells (baculovirus), P2 membranes
# experiment: Agonist-induced GTP binding (GTPγ35S) assay at CB1, Example 8
# Type: biochemical
# conditionInfo: Table II; IC50 at CB1, GTP binding with 1 nM CP55,940; read-out: IC50
pIC50: −log10 of the molar value.
propertyMeasured: pIC50

COc1ccc(-c2cccc(NC(=O)Nc3ccc(OC(F)F)cc3)c2)nc1Cl | > 5.70
O=C(Nc1ccc(OC(F)F)cc1)Nc1ccc(C(=O)c2ccccc2)cc1 | > 5.70
O=C(Nc1ccc(OC(F)F)cc1)Nc1ccc2ncccc2c1 | > 5.70
COc1ccc(NC(=O)Nc2ccc(Cl)cc2)cc1 | > 5.70

For `CC(C)c1ccc(NC(=O)Nc2ccc(F)cc2)cc1` , what is its reported pIC50?
> 5.70

Sample `CCCOc1ccc(NC(=O)Nc2cccc(C#N)c2)cc1` — what was its pIC50?
> 5.70

I am curious: what pIC50 value has been reported for `CCCOc1ccc(NC(=O)Nc2ccc(Cl)cc2)cc1` ?
> 5.70

Tell me the measured pIC50 of `CC(C)c1ccc(NC(=O)Nc2cccc(C#N)c2)cc1` , please.
> 5.70

Fill blank: measured pIC50 of the compound `O=C(Nc1ccc(OC(F)(F)F)cc1)Nc1cccc(OCCO)c1` is ____.
> 5.70

Reported pIC50 for `COC(=O)c1ccc(NC(=O)Nc2ccc(OC(F)F)cc2)cc1` : what is it?
> 5.70

----------
Form field: IC50 (one value per entry).
# testedOn: hCB1 (Homo sapiens)
# Construct: made in house; host or cells: Sf9 insect cells (baculovirus), P2 membranes
# experiment: Agonist-induced GTP binding (GTPγ35S) assay at CB1, Example 8
# Type: biochemical
# conditionInfo: IC50 at CB1, determined as described in Example 8; read-out: IC50

Some compounds with known IC50 results, for comparison:
CCOC(=O)c1ccc(NC(=O)Nc2ccc(C(C)O)cc2)cc1 (stereo not shown) [Compound 750] | < 2000 nM
N#CCOc1ccc(NC(=O)Nc2cccc([N+](=O)[O-])c2)cc1 [Compound 600] | < 2000 nM
CCC(=O)c1ccc(NC(=O)Nc2cccc(C)c2)cc1 [Compound 468] | < 2000 nM
Cc1ccc(F)cc1NC(=O)Nc1ccc(OC(C)C)cc1 [Compound 698] | < 2000 nM
N#CCOc1ccc(NC(=O)Nc2ccc(F)c(F)c2)cc1 [Compound 732] | < 2000 nM
CC(=O)c1ccc(NC(=O)Nc2ccc(OC(C)C)cc2)cc1 [Compound 424] | < 2000 nM

Given CCCc1ccc(NC(=O)Nc2ccc(C)c(C)c2)cc1 [Compound 654] , state its recorded IC50.
< 2000 nM

Fill in the blank: the reported IC50 of COc1cccc(NC(=O)Nc2ccc(C(C)C)cc2)c1 [Compound 521] is ____.
< 2000 nM

State the recorded IC50 for this entry: COc1ccc(NC(=O)Nc2ccc(C(C)=O)cc2)cc1 [Compound 410]
< 2000 nM

Fill in: IC50 of COC(=O)c1ccc(NC(=O)Nc2ccc(CCO)cc2)cc1 [Compound 752] is ___
< 2000 nM

----------
# testedOn: hCB1 (Homo sapiens)
# Construct: made in house; host or cells: Sf9 insect cells (baculovirus), P2 membranes
# experiment: Agonist-induced GTP binding (GTPγ35S) assay at CB1, Example 8
# Format: biochemical
# conditionInfo: IC50 at CB1, determined as described in Example 8; read-out: IC50
propertyMeasured: IC50

Worked examples follow.
CCOC(=O)c1ccc(NC(=O)Nc2ccc(OC)cc2)cc1 | < 2 µM
CCc1cccc(NC(=O)Nc2ccc(C(=O)OC)cc2)c1 | < 2 µM
CC(=O)c1ccc(NC(=O)Nc2cccc(F)c2)cc1 | < 2 µM
CC(C)Oc1ccc(NC(=O)Nc2ccccc2OC(F)F)cc1 | < 2 µM

Item `CCOC(=O)c1ccc(NC(=O)Nc2cccc(OCC)c2)cc1` has what recorded IC50?
< 2 µM

Give the measured IC50 of `COCc1ccc(NC(=O)Nc2cccc(F)c2)cc1` .
< 2 µM

----------
Recorded pIC50, one value per entry.
# testedOn: hCB1 (Homo sapiens)
# Construct: made in house; host or cells: Sf9 insect cells (baculovirus), P2 membranes
# experiment: Agonist-induced GTP binding (GTPγ35S) assay at CB1, Example 8
# Assay type: biochemical
# conditionInfo: Table II; IC50 at CB1, GTP binding with 1 nM CP55,940; read-out: IC50
pIC50: −log10 of the molar value.

The following molecules have reported results that may help.
O=C(Nc1ccc(Cl)cc1)Nc1ccc(OC(F)F)cc1 | > 5.70
O=C(Nc1ccc(Oc2ccccc2)cc1)Nc1ccc(OC(F)F)cc1 | > 5.70
CCC(CC)Oc1ccc(-c2cccc(NC(=O)Nc3ccc(OC(F)F)cc3)c2)nc1NC | > 5.70

Any idea what its pIC50 is? The molecule is `COCc1ccc(NC(=O)Nc2cccc(C#N)c2)cc1`
> 5.70

----------
# testedOn: hCB1 (Homo sapiens)
# Construct: made in house; host or cells: Sf9 insect cells (baculovirus), P2 membranes
# experiment: Agonist-induced GTP binding (GTPγ35S) assay at CB1, Example 8
# Format: biochemical
# conditionInfo: Table II; IC50 at CB1, GTP binding with 1 nM CP55,940; read-out: IC50
pIC50: −log10 of the molar value.
pIC50 by entry:

CCc1ccc(NC(=O)Nc2cccc(COC)c2)cc1 [Compound 238] | > 5.70
CCOc1cccc(NC(=O)Nc2ccccc2)c1 [Compound 222, N-(3-ethoxyphenyl)-N′-phenylurea] | > 5.70
Cc1ccc(NC(=O)Nc2ccc(OC(F)F)cc2)cc1C [Compound 90] | > 5.70
N#Cc1cncc(-c2cccc(NC(=O)Nc3ccc(OC(F)F)cc3)c2)c1 [Compound 73] | > 5.70

Tell me the measured pIC50 of CC(C)Oc1ccc(NC(=O)Nc2ccc(Cl)cc2)cc1 [Compound 252] , please.
> 5.70

Reported pIC50 for Cc1n[nH]c(C)c1-c1cccc(NC(=O)Nc2ccc(OC(F)F)cc2)c1 [Compound 117] : what is it?
> 5.70

For COCc1ccc(NC(=O)Nc2ccc(C(C)=O)cc2)cc1 [Compound 271] , what is its reported pIC50?
> 5.70

Name the reported pIC50 value associated with the compound O=C(Nc1ccc(OC(F)F)cc1)Nc1ccc2c(c1)CCC2 [Compound 80]
> 5.70

Quick one: pIC50 for CCc1ccccc1NC(=O)Nc1cccc(OC(F)F)c1 [Compound 227] ?
> 5.70

// lookup pIC50 for CC(C)Oc1ccc(NC(=O)Nc2ccc(F)cc2)cc1 [Compound 216]
> 5.70

Tell me the measured pIC50 of O=C(Nc1ccc(OC(F)F)cc1)Nc1cc(Cl)cc(Cl)c1 [Compound 93] , please.
> 5.70

I would be grateful if you could share the reported pIC50 for COc1ccc(C(F)(F)F)c(-c2cccc(NC(=O)Nc3ccc(OC(F)F)cc3)c2)n1 [Compound 121] .
> 5.70

Looking for the measured pIC50 of Cc1noc(C)c1-c1cccc(NC(=O)Nc2cccc(OC(F)F)c2)c1 [Compound 146] , can you help?
> 5.70

Look at this compound and give its reported pIC50. COCc1ccc(NC(=O)Nc2ccc(Cl)cc2)cc1 [Compound 242]
> 5.70

Field request: pIC50 | item: CCc1cccc(NC(=O)Nc2cccc(OC(F)F)c2)c1 [Compound 253]
> 5.70

State the recorded pIC50 for this entry: CCc1cccc(NC(=O)Nc2ccc(COC)cc2)c1 [Compound 239]
> 5.70

Which pIC50 reading was recorded for the compound Cc1noc(C)c1-c1cccc(NC(=O)Nc2ccc(OC(F)F)cc2)c1 [Compound 115] ?
> 5.70

pIC50 lookup needed for CCCOc1ccc(NC(=O)Nc2cccc(F)c2)cc1 [Compound 209] , thanks.
> 5.70

# query: pIC50 of entry CCOc1ccc(NC(=O)Nc2ccc(CC)cc2)cc1 [Compound 235]
> 5.70

Which pIC50 value is on record for CCCc1ccc(NC(=O)Nc2cccc(C(C)=O)c2)cc1 [Compound 199] ?
> 5.70

Ref: patent US20090239841A1
